Test system: 3×2 RNA internal loop library (3×2 ILL)
METHOD SUMMARY: AbsorbArray 2DCS selection with Inforna fitness analysis
Assay type: binding, human
REPORTED CONDITIONS: Zobs>8
# number of binding RNA motifs values compiled below
The reply should be a number, written without any unit.

CN1c2ccccc2Sc2ccc(CC(=O)O)cc21 | 274
NCCCNc1ccc2c3c(nn2CCNCCO)-c2c(O)ccc(O)c2C(=O)c13 | 278
CN1CCN(c2ccc3nc(-c4c(N)c5c(F)cccc5[nH]c4=O)[nH]c3c2)CC1 [Compound 1, Dovitinib, reference compound] | 256

Here is the next item to consider.
(Q) Could you tell me which number of binding RNA motifs is on file for `COc1ccc(NC(=O)[C@H](CCCCN)NC(=O)c2cc(NC(=O)[C@H](CCCCN)NC(=O)c3cc(NC(=O)[C@H](CCCCN)NC(=O)c4cc(NC(=O)[C@@H](N)CCCCN)ccc4OC)ccc3OC)ccc2OC)cc1C(N)=O` ?
(A) 284

Hello, the source for this data is patent US12702715B2, in case you need it.
